# METHOD: phase I clinical plasma pharmacokinetics (noncompartmental); Reg 1: 3qw continuous; Reg 3: 3qw 2 weeks on/1 week off
# Format: in vivo, human
# EXPERIMENTAL_CONTEXT: human, plasma, oral, 20 mg, 20 mg Reg.1, Cycle 1 Day 8, n 3, Tlast=8h; read-out: AUClast, Mean (SD)
MEASURE_NAME: AUC(0-t) (ng·h/mL)
Answers are plain numbers, in ng·h/mL.

Given the molecule `COc1cc2c(cc1OC(C)C)[C@H](c1ccc(Cl)cc1)N(c1ccc(N(C)C[C@H]3CC[C@H](N4CCN(C)C(=O)C4)CC3)cc1)C(=O)C2` , what is its reported AUC(0-t)?
1900

###

# METHOD: phase I clinical plasma pharmacokinetics (noncompartmental); Reg 1: 3qw continuous; Reg 3: 3qw 2 weeks on/1 week off
# Assay type: in vivo, human
# EXPERIMENTAL_CONTEXT: human, plasma, oral, 700 mg, 700 mg Reg.3, Cycle 1 Day 1, n 5; read-out: Cmax, Mean (SD)
MEASURE_NAME: Cmax (ng/mL)
Numbers only, in ng/mL.

Sample `COc1cc2c(cc1OC(C)C)[C@H](c1ccc(Cl)cc1)N(c1ccc(N(C)C[C@H]3CC[C@H](N4CCN(C)C(=O)C4)CC3)cc1)C(=O)C2` — what was its Cmax?
5590

###

# METHOD: phase I clinical plasma pharmacokinetics (noncompartmental); Reg 1: 3qw continuous; Reg 3: 3qw 2 weeks on/1 week off
# Format: in vivo, human
# EXPERIMENTAL_CONTEXT: human, plasma, oral, 40 mg, 40 mg Reg.1, Cycle 1 Day 1, n 4; read-out: Cmax, Mean (SD)
MEASURE_NAME: Cmax

Which Cmax is reported for this compound? `COc1cc2c(cc1OC(C)C)[C@H](c1ccc(Cl)cc1)N(c1ccc(N(C)C[C@H]3CC[C@H](N4CCN(C)C(=O)C4)CC3)cc1)C(=O)C2`
648 ng/mL

###

# METHOD: phase I clinical plasma pharmacokinetics (noncompartmental); Reg 1: 3qw continuous; Reg 3: 3qw 2 weeks on/1 week off
# Format: in vivo, human
# EXPERIMENTAL_CONTEXT: human, plasma, oral, 700 mg, 700 mg Reg.3, Cycle 1 Day 12, n 3; read-out: Cmax, Mean (SD)
MEASURE_NAME: Cmax (ng/mL)
Answers are plain numbers, in ng/mL.

Cmax lookup needed for `COc1cc2c(cc1OC(C)C)[C@H](c1ccc(Cl)cc1)N(c1ccc(N(C)C[C@H]3CC[C@H](N4CCN(C)C(=O)C4)CC3)cc1)C(=O)C2` , thanks.
9240

###

# METHOD: phase I clinical plasma pharmacokinetics (noncompartmental); Reg 1: 3qw continuous; Reg 3: 3qw 2 weeks on/1 week off
# Assay type: in vivo, human
# EXPERIMENTAL_CONTEXT: human, plasma, oral, 700 mg, 700 mg Reg.3, Cycle 1 Day 8, n 4, Tlast=8h; read-out: AUClast, Mean (SD)
MEASURE_NAME: AUC(0-t) (ng·h/mL)
One number for each entry, in ng·h/mL.

What does the record list as AUC(0-t) for COc1cc2c(cc1OC(C)C)[C@H](c1ccc(Cl)cc1)N(c1ccc(N(C)C[C@H]3CC[C@H](N4CCN(C)C(=O)C4)CC3)cc1)C(=O)C2 [CGM097] ?
58200

###

# METHOD: phase I clinical plasma pharmacokinetics (noncompartmental); Reg 1: 3qw continuous; Reg 3: 3qw 2 weeks on/1 week off
# Type: in vivo, human
# EXPERIMENTAL_CONTEXT: human, plasma, oral, 500 mg, 500 mg Reg.3, Cycle 2 Day 1, n 6, Tlast=8h; read-out: AUClast, Mean (SD)
MEASURE_NAME: AUC(0-t) (ng·h/mL)
Answers are plain numbers, in ng·h/mL.

Quick one: AUC(0-t) of COc1cc2c(cc1OC(C)C)[C@H](c1ccc(Cl)cc1)N(c1ccc(N(C)C[C@H]3CC[C@H](N4CCN(C)C(=O)C4)CC3)cc1)C(=O)C2 [CGM097] ?
26800

###

# METHOD: phase I clinical plasma pharmacokinetics (noncompartmental); Reg 1: 3qw continuous; Reg 3: 3qw 2 weeks on/1 week off
# Assay type: in vivo, human
# EXPERIMENTAL_CONTEXT: human, plasma, oral, 40 mg, 40 mg Reg.1, Cycle 1 Day 8, n 1, Tlast=8h; read-out: AUClast, Mean (SD)
MEASURE_NAME: AUC(0-t) (ng·h/mL)
Give bare numbers, in ng·h/mL.

Give its AUC(0-t) value. Item: COc1cc2c(cc1OC(C)C)[C@H](c1ccc(Cl)cc1)N(c1ccc(N(C)C[C@H]3CC[C@H](N4CCN(C)C(=O)C4)CC3)cc1)C(=O)C2 [CGM097]
4560

###

# METHOD: phase I clinical plasma pharmacokinetics (noncompartmental); Reg 1: 3qw continuous; Reg 3: 3qw 2 weeks on/1 week off
# Assay type: in vivo, human
# EXPERIMENTAL_CONTEXT: human, plasma, oral, 300 mg, 300 mg Reg.1, Cycle 1 Day 8, n 5; read-out: Cmax, Mean (SD)
MEASURE_NAME: Cmax
Number first, unit second.

May I ask what Cmax has been recorded for COc1cc2c(cc1OC(C)C)[C@H](c1ccc(Cl)cc1)N(c1ccc(N(C)C[C@H]3CC[C@H](N4CCN(C)C(=O)C4)CC3)cc1)C(=O)C2 [CGM097] ?
7.57 µg/mL

###

# METHOD: phase I clinical plasma pharmacokinetics (noncompartmental); Reg 1: 3qw continuous; Reg 3: 3qw 2 weeks on/1 week off
# Assay type: in vivo, human
# EXPERIMENTAL_CONTEXT: human, plasma, oral, 300 mg, 300 mg Reg.1, Cycle 2 Day 1, n 4; read-out: Cmax, Mean (SD)
MEASURE_NAME: Cmax (ng/mL)
Numbers only, in ng/mL.

Item `COc1cc2c(cc1OC(C)C)[C@H](c1ccc(Cl)cc1)N(c1ccc(N(C)C[C@H]3CC[C@H](N4CCN(C)C(=O)C4)CC3)cc1)C(=O)C2` has what recorded Cmax?
8020

###

# METHOD: phase I clinical plasma pharmacokinetics (noncompartmental); Reg 1: 3qw continuous; Reg 3: 3qw 2 weeks on/1 week off
# Format: in vivo, human
# EXPERIMENTAL_CONTEXT: human, plasma, oral, 300 mg, 300 mg Reg.3, Cycle 1 Day 8, n 6; read-out: Cmax, Mean (SD)
MEASURE_NAME: Cmax
Write the numeric value and follow it with the unit.

For the compound shown here, `COc1cc2c(cc1OC(C)C)[C@H](c1ccc(Cl)cc1)N(c1ccc(N(C)C[C@H]3CC[C@H](N4CCN(C)C(=O)C4)CC3)cc1)C(=O)C2` , give the reported Cmax.
3910 ng/mL

###

# METHOD: phase I clinical plasma pharmacokinetics (noncompartmental); Reg 1: 3qw continuous; Reg 3: 3qw 2 weeks on/1 week off
# Type: in vivo, human
# EXPERIMENTAL_CONTEXT: human, plasma, oral, 150 mg, 150 mg Reg.1, Cycle 1 Day 8, n 3; read-out: Cmax, Mean (SD)
MEASURE_NAME: Cmax

Would you mind telling me what Cmax value was observed for COc1cc2c(cc1OC(C)C)[C@H](c1ccc(Cl)cc1)N(c1ccc(N(C)C[C@H]3CC[C@H](N4CCN(C)C(=O)C4)CC3)cc1)C(=O)C2 [CGM097] ?
3280 ng/mL

###

# METHOD: phase I clinical plasma pharmacokinetics (noncompartmental); Reg 1: 3qw continuous; Reg 3: 3qw 2 weeks on/1 week off
# Assay type: in vivo, human
# EXPERIMENTAL_CONTEXT: human, plasma, oral, 20 mg, 20 mg Reg.1, Cycle 2 Day 1, n 2, Tlast=8h; read-out: AUClast, Mean (SD)
MEASURE_NAME: AUC(0-t) (ng·h/mL)
Give bare numbers, in ng·h/mL.

Request the reported AUC(0-t) associated with `COc1cc2c(cc1OC(C)C)[C@H](c1ccc(Cl)cc1)N(c1ccc(N(C)C[C@H]3CC[C@H](N4CCN(C)C(=O)C4)CC3)cc1)C(=O)C2`
2470

###

# METHOD: phase I clinical plasma pharmacokinetics (noncompartmental); Reg 1: 3qw continuous; Reg 3: 3qw 2 weeks on/1 week off
# Type: in vivo, human
# EXPERIMENTAL_CONTEXT: human, plasma, oral, 20 mg, 20 mg Reg.1, Cycle 1 Day 1, n 4; read-out: Cmax, Mean (SD)
MEASURE_NAME: Cmax (ng/mL)
Numbers only, in ng/mL.

State the recorded Cmax for this entry: `COc1cc2c(cc1OC(C)C)[C@H](c1ccc(Cl)cc1)N(c1ccc(N(C)C[C@H]3CC[C@H](N4CCN(C)C(=O)C4)CC3)cc1)C(=O)C2`
226

###

# METHOD: phase I clinical plasma pharmacokinetics (noncompartmental); Reg 1: 3qw continuous; Reg 3: 3qw 2 weeks on/1 week off
# Format: in vivo, human
# EXPERIMENTAL_CONTEXT: human, plasma, oral, 500 mg, 500 mg Reg.3, Cycle 1 Day 8, n 6; read-out: Cmax, Mean (SD)
MEASURE_NAME: Cmax (ng/mL)
Answers are plain numbers, in ng/mL.

Please look up its Cmax: COc1cc2c(cc1OC(C)C)[C@H](c1ccc(Cl)cc1)N(c1ccc(N(C)C[C@H]3CC[C@H](N4CCN(C)C(=O)C4)CC3)cc1)C(=O)C2 [CGM097]
7540

Just for reference, paper PMC8405607 is where these values come from.
